biological target: BRD4 BD1 (Homo sapiens); test: AlphaScreen binding assay, BRD4 Bromodomain 1
pIC50: −log10 of the molar value.
Below: a set of entries, each annotated with reported pIC50.

Consider the worked cases shown below.
Query string: Read off the recorded pIC50 for "CC(=O)N1c2ccc(-c3ccc(S(=O)(=O)C(F)(F)F)cc3)cc2N(C(=O)c2ccco2)C[C@@H]1C"
Result string: 5.00 to 6.00

Query string: Tell me measured pIC50 for "CC(=O)N1c2ccc(-c3ccc(S(C)(=O)=O)cc3)cc2N(C(=O)c2ccc(Oc3cc(Cl)cc(Cl)c3)o2)C[C@@H]1C" please.
Result string: < 5.00

New cases:
Query string: // Input: "CC(=O)N1c2ccc(-c3ccc(S(=O)(=O)NC(C)(C)C)cc3)cc2N(C(=O)OC2CCOCC2)C[C@@H]1C" . Output its pIC50 only.
Result string: 6.00 to 7.00

Query string: Fill in reported pIC50 for this entry: "CC(=O)N1c2ccc(-c3cnn(Cc4c[nH]cn4)c3)cc2N(C(=O)C2CC2)C[C@@H]1C"
Result string: 6.00 to 7.00

* * *

molecular target: BRD4 BD2 (Homo sapiens); assay: AlphaScreen binding assay, BRD4 Bromodomain 2
readout.name: IC50

Study these solved cases before continuing.
Query string: Determine its reported IC50: "CCS(=O)(=O)c1cccc(-c2ccc3c(c2)N(C(=O)OC(C)C)C[C@H](C)N3C(C)=O)c1"
Result string: 50 to 500 nM

Query string: Look up IC50 of CC(=O)N1c2ccc(-c3ccc(S(C)(=O)=O)cc3)cc2N(C(=O)c2ccco2)CC1CF (stereo not shown) and report it.
Result string: > 500 nM

Query string: Given the compound "CC(=O)N1c2ccc(-c3cccc4cnn(C)c34)cc2N(C(=O)c2ccco2)C[C@@H]1C" , write its reported IC50.
Result string: > 500 nM

Query string: Annotate the compound "CCOC(=O)N1C[C@H](C)N(C(C)=O)c2ccc(-c3cccc(N4CCCS4(=O)=O)c3)cc21" with its measured IC50.
Result string: 50 to 500 nM

Query string: In one line, give reported IC50 of the entry "COc1ccc(OC(=O)N2C[C@H](C)N(C(C)=O)c3ccc(-c4cnn(C5COC5)c4)cc32)cc1" .
Result string: < 50 nM

Query string: Answer with the recorded IC50 for the compound listed here: "CC(=O)Nc1cc2c(cc1-c1cnn(C3CC3)c1)N(C(=O)OC(C)C)C[C@H](C)N2C(C)=O"
Result string: 50 to 500 nM

# context switch: different compound, same IC50
Query string: Give the measured IC50 for "CC(=O)N1c2ccc(-c3cnn(Cc4noc(C)n4)c3)cc2N(C(=O)OC(C)C)C[C@@H]1C"
Result string: 50 to 500 nM

* * *

target: BRD4 BD2 (Homo sapiens, UniProt O60885); assay: AlphaScreen binding assay, BRD4 Bromodomain 2
pIC50: −log10 of the molar value.
readout.name: pIC50

Query string: Provide pIC50 value for the following molecule: CC(=O)N1c2ccc(-c3ccc(NC(=O)N(C)C)cc3)cc2N(C(=O)c2ccco2)C[C@@H]1C [Example I-284]
Result string: > 7.30

***
Query string: Write down pIC50 measured for item CNC(=O)Cn1cc(-c2ccc3c(c2)N(C(=O)OC(C)C)C[C@H](C)N3C(C)=O)cn1 [Example I-134]
Result string: 6.30 to 7.30

Query string: Identify the reported pIC50 for the following entry. CC(=O)N1c2ccc(-c3ccns3)cc2N(C(=O)c2ccco2)C[C@@H]1C [Example I-434]
Result string: 6.30 to 7.30

Query string: // Input: CC(=O)N1c2ccc(-c3cnn(C4CC4)c3)cc2N(c2nn(C)c3cc(F)ccc23)C[C@@H]1C [Example I-54] . Output its pIC50 only.
Result string: 6.30 to 7.30

Query string: Consider the molecule CC(=O)N1c2ccc(-c3cnn(CC(C)(C)O)c3)cc2N(C(=O)Oc2ccccn2)C[C@@H]1C [Example I-1320] . State its measured pIC50.
Result string: 6.30 to 7.30

Query string: Complete the entry with pIC50 for CC(=O)N1c2ccc(-c3ccc(S(N)(=O)=O)cc3)cc2N(C(=O)OC(C)C)C[C@@H]1C [Example I-1069]
Result string: 6.30 to 7.30

Query string: Respond only with pIC50 recorded for CC(=O)N1c2ccc(-c3cnn(C4COC4)c3)cc2N(C(=O)OC(C)C)C[C@@H]1C [Example I-144]
Result string: > 7.30

Query string: Give a short answer stating reported pIC50 for CCS(=O)(=O)Nc1cccc(-c2ccc3c(c2)N(C(=O)C2CC2)C[C@H](C)N3C(C)=O)c1 [Example I-1054] .
Result string: 6.30 to 7.30
